All figures here come from PubChem BioAssay (NCI).

tested on: ACHN renal; test: NCI-60 one-dose screen, 48 h; conditions: 10 µM
The panel holds about 83,000 compounds, 20% with a hit somewhere; the sample as a whole holds those more often. Activity calls are given as the source filed them. Rule for the calls: active = growth percent below 10; inactive = the rest.
Would you mind answering with one of these outcomes? active, inactive

molecule	category-label
CC(=O)OC1C=CC(OC(C)=O)O1 (centres undefined)	inactive
CCn1c(SCCc2ccccc2)nnc1-c1nn(-c2ccc(Cl)cc2Cl)c(-c2ccc(Cl)cc2)c1C	inactive
COc1cc2cc(Oc3ccc(NC(=O)c4ccccc4)cc3)c(C)nc2cc1OC	inactive
COc1ccc(-c2nn(-c3cccc(Cl)c3)cc2-c2c(C#N)c(=O)n3[nH]c(-c4ccccc4)nc3c2C#N)cc1	inactive

Exercise: Assay result, entry `Cc1cc(NC(=O)c2ccc(C)c(Nc3nccc(-c4cccnc4)n3)c2)cc(-n2cnc(C)c2)c1` — outcome?
Solution: active

Exercise: How was `CCN(CC)CCOC(=O)c1cc(OCc2ccccc2)c(OCc2ccccc2)c(OCc2ccccc2)c1` classified in this test?
Solution: inactive

Exercise: Hey, what did the test say about `Cc1nn(-c2ccc(-c3ccc(OC(F)(F)F)cc3)cc2)c2nc(Cc3ccccc3)nc(N)c12` ?
Solution: inactive

Exercise: Look up the recorded call for `COc1cc(-c2csc(NC(=O)Nc3cc(C(F)(F)F)cc(C(F)(F)F)c3)n2)cc(OC)c1OC` in this test.
Solution: active

Exercise: // outcome(item) with item = `COc1ccc(C(=O)CC(CC(=O)c2ccc(OC)cc2)c2c(C)nn(-c3ccccc3)c2Cl)cc1`
Solution: inactive

----------
growth reference
tested on: HOP-92 NSCLC; assay: NCI-60 one-dose screen, 48 h (100 = growth as untreated, 0 = no growth, -100 = all killed); conditions: 10 µM
Compounds without any hit were thinned out: in the full panel of roughly 83,000, 20% have a hit.
Dear colleague, please return just the value in %, with no unit written.

molecule	units-symbol	growth
CC(C)c1ccc(C(C)C(=O)N(CC2=C(C(C)c3ccccn3)c3ccccc3C2)C(C)C)cc1 (centres undefined)	%	20.3
CC(=O)C1N=NCC1c1ccccc1 (centres undefined)	%	73.8
CC1/C=C/C=C/C=C/C=C/C=C/C=C/C=C/C(O[C@@H]2O[C@H](C)[C@H](O)[C@@H](O)[C@@H]2N)CC(O)C(C(=O)O)C(O)CC(=O)CC(O)CC(O)CC(O)CC(=O)CCCC(=O)CC(=O)OC1C(C)CC(C)C(O)CC(=O)c1ccc(N)cc1 (some centres undefined)	%	-88.2
CN(C)CCCOc1ccccc1NC1=C(Cl)C(=O)C(Nc2ccccc2OCCCN(C)C)=C(Cl)C1=O	%	-57.1
O=C(COc1cccc(/C=C2\CSc3ccccc3C2=O)c1)c1ccc(Cl)cc1	%	56.5
COc1ccc(Cc2cnc(N)nc2N)cc1OC	%	90.1

The measured growth that COc1ccc(/C=C2\CCCC3=C2N=C2SC(C)=CN2C3c2ccc(OC)cc2)cc1 (centres undefined) showed for HOP-92 NSCLC is 93.8

Item Cc1ccc(C(SCC(N)C(=O)O)(c2ccc(C)cc2)c2ccc(C)cc2)cc1 (centres undefined) was tested on HOP-92 NSCLC; the reported growth is -15.3

# lookup: `Clc1ccc2c(c1)C(N1CCNCC1)=Nc1ccccc1O2` on HOP-92 NSCLC, growth = 7.39

----------
tested on: HOP-62 NSCLC; test: NCI-60 one-dose screen, 48 h; details: 10 µM
About 83,000 compounds went through this panel and 20% of them were active in at least one assay; those are over-represented in the sample as a whole. Calls of active or inactive are those of the source. Rule for the calls: active = growth percent below 10; inactive = the rest.
Just give me one of these, please: active, inactive

A selection of reference data follows.
smiles-representation	category-label
S=C(NCc1ccccc1)NCc1ccccc1	inactive
O=C(O)COc1c(Cl)cc([N+](=O)[O-])cc1Cl	inactive
COc1cc(/C=C/c2cc(/C=C/c3ccc(O)c(OC)c3)[nH]c(=O)n2)ccc1O	inactive
CC(C)(C)OC(=O)CN1CCc2c(sc3ncnc(N/N=C/c4cccc5ccccc45)c23)C1	inactive

Exercise: Outcome logged for `Oc1ccc(-c2[nH]c3ccccc3c2-c2nc3ccccc3o2)cc1` in this assay:
Solution: inactive

Exercise: Which outcome was entered for the compound `CN(C)c1nc(N)c2nccnc2n1` in this test?
Solution: inactive

Exercise: Recorded test outcome, item `CCOC(=O)CC(S(=O)(=O)c1ccccc1)S(=O)(=O)c1ccccc1`
Solution: inactive

Exercise: Record request — test call for `COc1cc(/C=C/c2cc(/C=C/c3ccc(O)c(OC)c3)n(C(=O)Nc3ccccc3Cl)n2)ccc1O`
Solution: active

Exercise: GET /call?item= `Cc1c(Cl)cccc1NC(=O)CCCl` returns the recorded outcome of this test.
Solution: inactive

Exercise: Hello, I am checking results. What call was entered for `NS(=O)(=O)c1ccc(Br)cc1` ?
Solution: inactive

Exercise: Kindly provide the recorded test outcome for the following compound: `Nc1cc(Br)c(-c2nn3c(CCC(=O)c4nc5ccccc5[nH]4)nnc3s2)c(Br)c1`
Solution: inactive

----------
System: SK-OV-3 ovarian
Assay: NCI-60 one-dose screen, 48 h (100 = growth as untreated, 0 = no growth, -100 = all killed)
Settings: 10 µM
Method: Growth inhibition of the SK-OV-3 human tumor cell line is measured as a screen for anti-cancer activity. Cells are grown in 96 well plates and exposed to the test compound for 48 hours. Compounds are tested at a single concentration, which is 10^-5 M for most compounds. The reported endpoint is percent growth (GI% or GIPRCNT), where numbers from 0 - 100% represent growth inhibition, and numbers from -100% - 0 represent cell death. For example, a value of 40 represents 60% growth inhibition. […]
About 83,000 compounds went through this panel and 20% of them were active in at least one assay; those are over-represented in the sample as a whole. Calls of active or inactive are those of the source. The calls were made as follows: active = growth percent below 10; inactive = the rest.
Readings of growth for the listed compounds

Guide cases for growth, answers given:
smiles-representation	growth
COc1ccc(-c2nn(-c3cccc(Cl)c3)cc2-c2cc(-c3ccccc3)[nH]c(=O)c2C#N)cc1	-47.3% (active)
Cc1ccc(C(C)C)c(O)c1NC(=O)OC(C)C	106% (inactive)
CC(C)(C)OC(=O)CN1CCc2c(sc3ncnc(N/N=C/c4cccc5ccccc45)c23)C1	67.4% (inactive)
Cc1ccc(/C=C2/C(=O)N(C)c3ccc(S(=O)(=O)Nc4ccc(C(C)(C)C)cc4)cc32)s1	89.6% (inactive)

The value of growth recorded for `Cn1c2ccccc2c2c3[nH][nH]c(=O)c3c3c4ccccc4[nH]c3c21` when tested on SK-OV-3 ovarian reads 13.2% (inactive)

----------
tested on: HCT-15 colon; experiment: NCI-60 one-dose screen, 48 h (100 = growth as untreated, 0 = no growth, -100 = all killed); conditions: 10 µM
The panel holds about 83,000 compounds, 20% with a hit somewhere; the sample as a whole holds those more often. The source made the active and inactive calls. How the source made its calls: active means growth percent below 10; inactive means the rest.
measure-name: growth

Summary for this molecule, CCCCN1C(=O)CC(SC2CC(=O)N(CCCC)C2=O)C1=O (stereo not given) : growth is 120% (inactive)

# molecule `O=C1/C=C/[C@@H](O)[C@@H]2C[C@@H](O)C[C@H]2/C=C/CCC[C@H](C(F)(F)F)O1` ; its growth = 6.45% (active)

CN(C)c1ncnc2c1nnn2C1OC(CO)C(O)C1O (stereo not given) yielded growth of 7.45% (active)

Kindly note the recorded growth for CCOC(=O)C1C(C(=O)OCC)C2C(=O)C3C(C(=O)OCC)C(C(=O)OCC)C3C(=O)C12 (stereo not given) , which is 103% (inactive)

Looking up `COc1cc(C)ccc1Oc1nc(Nc2ccc(N3CCOCC3)cc2)ncc1NC(=O)Nc1cc(C(F)(F)F)cc(C(F)(F)F)c1` , I found its growth recorded as 66.6% (inactive)

----------
system: UO-31 renal; assay: NCI-60 one-dose screen, 48 h (100 = growth as untreated, 0 = no growth, -100 = all killed); settings: 10 µM
About 83,000 compounds went through this panel and 20% of them were active in at least one assay; those are over-represented in the sample as a whole.
measure-name: growth (%)
# number only, unit % dropped from output

molecule	assayed-system	measure-name	experimental-value
Nc1nccc(OCCO)n1	UO-31 renal	growth	91
COc1cccc(N=Nc2cccc(OC)c2)c1	UO-31 renal	growth	88.2
CCN1CC(CCN2CCOCC2)C(C(c2ccccc2)c2ccccc2)C1=O (stereo not given)	UO-31 renal	growth	85.5
CCOC(=O)c1sc2ncnc(Nc3ccc4c(cnn4C(=O)Nc4ccc(C)c(Cl)c4)c3)c2c1C	UO-31 renal	growth	94.7
COc1cc(/C=C2\CCCC3=C2N=C2SC(C)=CN2C3c2cc(OC)c(OC)c(OC)c2)cc(OC)c1OC (stereo not given)	UO-31 renal	growth	-37.2

Record for `O=C(N/N=C/c1ccc(Cl)cc1)c1ccc(Cc2n[nH]c(=O)c3cccnc23)cc1` under target or system UO-31 renal: growth reported as 74.3

Case `Nc1ncc(-c2cnn(C3CCNCC3)c2)cc1-c1nc2ccccc2o1` , UO-31 renal, growth recorded as -17.7
